Origin of measurements: paper PMC12136788

Exercise: state measured binding signal for each of the binders provided.
Target: T1, UNK ZnF1-3 (human, UniProt Q9C0B0 31-174)
T1 sequence: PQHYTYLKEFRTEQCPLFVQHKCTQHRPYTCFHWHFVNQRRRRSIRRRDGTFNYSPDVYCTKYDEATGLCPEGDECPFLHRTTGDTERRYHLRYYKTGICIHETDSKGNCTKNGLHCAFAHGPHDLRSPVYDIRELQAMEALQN
Test: nsRBNS (natural sequence RNA bind-n-seq); RBNS binding buffer (assumed for nsRBNS): 25 mM Tris pH 7.5, 150 mM KCl, 3 mM MgCl2, 0.01% Triton X-100, 500 ug/ml BSA, 20 U/ml SUPERase-In, 4 C; UNK is unkempt and MSI1 is Musashi-1; names of the RNAs are library labels; protein concentration not given here; high values mean tight binding
The full ranking holds about 24,000 sequences; the median of “enrichment r” is about 0.99, and the highest 2% start at about 3.7. The list comes from a sample in which the highest values are over-represented; it also holds close analogues and randomly drawn sequences.
API: value field is a number in enrichment R; no unit string.

Asked: Request the reported binding signal associated with 83126405_83126525_1642_CDS_ENSMUSG00000058881_ENSMUST00000071233|mouse|control|control (ssRNA) RNA: GGGAGUUCUACAGUCCGACGAUCCCGGGGAUCAAGGUGGCCAGAAAGCAUGGGGUCCCCAGGUACACUGGCCCUCUUCCUCGGGGGAGCUUGGGUAGCCGGAGCAUCCUGUUCACGCUUGCGUUUUUCCUGGCUCACCAGUAUCAACAGAGGAUUGAGCAUCA
Given back: 0.53

Asked: Request the reported binding signal associated with chr18:46858332:46858333:-_ENSG00000141627_ENST00000269445|hu_hu|FALSE|FALSE (ssRNA) RNA: GGGAGUUCUACAGUCCGACGAUCCGACUGCUGAGGGAAAACAUGGGCCCCUGGAGGAGGUGGCUUUUCUUGUCUGAUAAAGUUAUAUAAUAAGGUCUUCACAAGUUUGCUGGUGUAUGGAAGACAUGGACCUCGCAUCAAAUACAACAGAGGAUUGAGCAUCA
Given back: 2.32

Asked: Request the reported binding signal associated with chr2:153237265:153237266:-_ENSMUSG00000061411_ENSMUST00000109784|mus_hu|FALSE|FALSE (ssRNA) RNA: GGGAGUUCUACAGUCCGACGAUCAAAAAAAAAAAAAAAAAAGUGUCCUUGUGCCCAAAGUCUCAGGUGCUUGGAGUGUGGCUAGAAACAGCUCUUUUGGAUCCCACCUCUUUCAAAAACAAAAUGUACCAACUGGUGAGGCAGCAACAGAGGAUUGAGCAUCA
Given back: 6.49
